Reported values of protein stability index for individual entries
test system: Saccharomyces cerevisiae; experiment: protein stability index of tFT-peptide fusion (C-terminal peptide) (PSI (0-1 scale)); higher = more stable (slower turnover); conditions: genetic background: wild type; temperature: 30 C;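 further: PSI is a weighted mean of sequencing reads over stability bins, variants kept only with over 10 reads, mCherry proximal and sfGFP distal, peptide attached via GGGS linker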
Reply: number alone, nothing else.

PHTFNVRPFHPD ... 0.674
RVWYNVGEGPVR ... 0.699
GGTVAGLYILGF ... 0.63

Exercise: Request the reported protein stability index associated with PVSSLHFPLPGF
Solution: 0.677

Exercise: What about VSEVDVRGKGIR ?
Solution: 0.783

Exercise: What about GRCLRITMACYI ?
Solution: 0.646

Exercise: What about RKSKRLDQSCTR ?
Solution: 0.703

Exercise: What about GKLRGTGGRAGE ?
Solution: 0.669

Exercise: What about IMSFTLLAPGQM ?
Solution: 0.692

Exercise: What about QPGPKTTYLEEA ?
Solution: 0.686

Exercise: What about LGTLLWGGAGRG ?
Solution: 0.713

Source listed as the supplement of paper PMC10724198.
